Assign apparent KD of K4 kissing-loop reporter to each entry below.
Tested on: K4 kissing-loop RNA reporter;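 note: bound reporter read as fluorescence of individual clusters on recovered sequencing chips by microscopy, with normalized cluster intensities fitted with a binding model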
ASSAY_PROTOCOL: apparent KD of K4 kissing-loop reporter; higher = weaker reporter binding
RUN_PARAMETERS: Eterna round: R107; input ligand: tryptophan 2.4 mM
Dear colleague, please return just the value in nM, with no unit written.

Lookup: apparent KD of K4 kissing-loop reporter / K4 kissing-loop RNA reporter / UGUGAGCUGUCGACAAAAGUCGACUAAAAUGAGGAUAUGACGAAAGUCAGAAGGCAUCAAUAAUGGAGUGAUGUUCCUGCUCACU [FmnA 9 U30+A56] 763

Form: Entry = AUGCGCGCGGCGGCCGCCACUCGCAUGAGAGUGAUGUUCUCGCCGUGCCCGUAAGGGUGCGGUGUGAGGACCGGGCCGGGCUGCG [#2 Same State - Tryptophan B Attempt #20 (HarryS)] | System = K4 kissing-loop RNA reporter | apparent KD of K4 kissing-loop reporter = ____ 239

GET /values?readout=apparent KD of K4 kissing-loop reporter&system=K4 kissing-loop RNA reporter&item= GAUUAAUAAGAGGAUACCAGUACUAAUAAAGUACAUUAAUAGUAGAGUGAUGUUCUAAAGUACCCUUGGCAGCUUAGAGUAAGUU [#08 K4 Theophylline B Exclusion] 97.5

State its apparent KD of K4 kissing-loop reporter on K4 kissing-loop RNA reporter: CCCGUGGGUUUGAGAGGGCUUGUGGGAAGUAAGGAUAUUUAGGGAGAAAGAAGGUACUAUAGAAUAUAGUGAUGUUAUAUAUGGG [#06 K4 FMN A Same State] 170

State its apparent KD of K4 kissing-loop reporter on K4 kissing-loop RNA reporter: CCGUGGCCGACGGCCGCCACUCUUACCAUCCAGCGGAGUGAUGUUCCGCCCGAGUGAUGUUCGGAGAGGACCGGGUCUGUUGUAA [Exclusion Tryptophan B GF30] 98.9

---

Tested on: MS2 coat protein
ASSAY_PROTOCOL: apparent KD of MS2 coat protein; designed switch direction (-1 OFF switch, 1 ON switch): -1; higher = weaker reporter binding
RUN_PARAMETERS: input ligand: FMN 200 uM
READOUT: apparent KD of MS2 coat protein
Put your answer as a value accompanied by its unit after it.

Which apparent KD of MS2 coat protein reading was recorded for the sequence UAGCAUUGCCUUUGGUAGUGCUUUACAUGAGGAUCACCCAUGUAGGAUAUGGUCGGCUUUGCUGACCAGAAGGACAUGUGUAUU [MOD ENG3 1.04 by JL] (Eterna round: R96, puzzle: Exclusion NG 3) ? 0.13 µM

Need apparent KD of MS2 coat protein of GUUAACGCAGGAUAUUAGUACUUUUACAUGAGGAUCACCCAUGUUAAUUGGGUCUAAGAAUAAGAAGGGCGAUGAA [JR_Ex5_Sub009] (Eterna round: R97, puzzle: Exclusion 5) , thanks. 0.0483 µM

Using the record for CCGGAAAGGAAGGAUAUGCUAGACGAUAGUCUAGCAGAAGGUCCUACAUGAGGAUCACCCAUGUGGCCUCCCGG [Mat - Exclusion 6 - Eli Mod - D47] (Eterna round: R97, puzzle: Exclusion 6) , report its apparent KD of MS2 coat protein. 0.68 µM

Return reported apparent KD of MS2 coat protein; argument: CCGUGCACGCUGCGCUCCUACAUGAGGAUCACCCAUGUGGUCCGGUGGCGUGGGUCGCCGGACUUGGCUCGUCUUGU [salish99_S_TOV1_R5_019] (Eterna round: R97, puzzle: Sensor, turn-off variant 1) 0.0831 µM

# get_value(readout='apparent KD of MS2 coat protein', item= GGUCGGCGAGGAUAUACAUGAGGAUCACCCAUGUGAUAGAUUAUCGCGAAAGCGUAAUGUAGAAGGCGCUGACG [jl-ex3-4.10 jl mod] (Eterna round: R97, puzzle: Exclusion 3) ) 1.28 µM
